Each entry below carries its reported PBM binding z-score.
system: PPARg:RXRa DBDmut IVT, anti-RXR (DBD mutation: RXRa K156A/R161A, NR concentration 270 nM, RXRa partner concentration 90 nM); assay: PBM binding z-score (relative to random genomic background probes); higher = stronger binding; sequences stand for … in GC…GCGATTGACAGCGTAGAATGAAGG

Known results for sequences:
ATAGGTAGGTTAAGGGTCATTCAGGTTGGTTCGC = 3.71
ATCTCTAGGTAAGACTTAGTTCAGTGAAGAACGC = 1.88
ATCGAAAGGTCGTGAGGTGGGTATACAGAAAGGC = -0.234

stdin: I'd like to know its PBM binding z-score. The sequence in question is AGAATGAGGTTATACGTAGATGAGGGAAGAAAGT
stdout: 3.97

stdin: I'd like to know its PBM binding z-score. The sequence in question is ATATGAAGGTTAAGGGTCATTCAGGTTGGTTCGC
stdout: 2.29

stdin: I'd like to know its PBM binding z-score. The sequence in question is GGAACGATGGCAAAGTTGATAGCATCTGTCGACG
stdout: -0.422

stdin: I'd like to know its PBM binding z-score. The sequence in question is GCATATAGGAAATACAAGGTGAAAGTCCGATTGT
stdout: -0.0437

stdin: I'd like to know its PBM binding z-score. The sequence in question is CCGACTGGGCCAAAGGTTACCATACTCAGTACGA
stdout: 3.77

stdin: I'd like to know its PBM binding z-score. The sequence in question is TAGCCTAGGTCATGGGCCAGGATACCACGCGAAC
stdout: 1.37

* * *

test system: PPARg:RXRa (NR concentration 180 nM, RXRa partner concentration 90 nM); assay: PBM binding z-score (relative to random genomic background probes); higher = stronger binding; sequences stand for … in GC…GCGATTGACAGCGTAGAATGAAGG
Each entry below carries its reported PBM binding z-score.
Enter the number alone.

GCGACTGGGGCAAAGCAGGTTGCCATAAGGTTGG = 0.599
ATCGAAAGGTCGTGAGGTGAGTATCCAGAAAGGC = 4.11
CCTACTGCGCCATTCAGAGGTCATTGATCATATG = 0.615

// next item, PBM binding z-score requested
stdin: I'd like to know its PBM binding z-score. The sequence in question is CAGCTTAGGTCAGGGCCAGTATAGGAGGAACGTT
stdout: 0.606

* * *

Each entry below carries its reported PBM binding z-score.
test system: PPARg DBDmut:RXRa IVT, anti-PPARg (DBD mutation: PPARg1 K132A/R137A, NR concentration 270 nM, RXRa partner concentration 90 nM); assay: PBM binding z-score (relative to random genomic background probes); higher = stronger binding; sequences stand for … in GC…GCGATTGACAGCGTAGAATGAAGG
Enter the number alone.

ATCTCTAGGTAAGACTCAGTTCAGAGAAGAACGC = 1.58
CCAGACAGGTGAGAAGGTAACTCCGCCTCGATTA = -0.414
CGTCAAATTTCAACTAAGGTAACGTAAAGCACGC = 1.41

stdin: I'd like to know its PBM binding z-score. The sequence in question is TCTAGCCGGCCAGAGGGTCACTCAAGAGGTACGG
stdout: -0.893

stdin: I'd like to know its PBM binding z-score. The sequence in question is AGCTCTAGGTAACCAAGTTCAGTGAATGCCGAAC
stdout: -0.276

stdin: I'd like to know its PBM binding z-score. The sequence in question is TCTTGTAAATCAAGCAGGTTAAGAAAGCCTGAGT
stdout: -0.116

stdin: I'd like to know its PBM binding z-score. The sequence in question is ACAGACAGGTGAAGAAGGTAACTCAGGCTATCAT
stdout: 0.175

stdin: I'd like to know its PBM binding z-score. The sequence in question is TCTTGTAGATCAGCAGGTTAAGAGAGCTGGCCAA
stdout: -0.495

stdin: I'd like to know its PBM binding z-score. The sequence in question is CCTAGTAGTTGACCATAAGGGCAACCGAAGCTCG
stdout: -0.485

stdin: I'd like to know its PBM binding z-score. The sequence in question is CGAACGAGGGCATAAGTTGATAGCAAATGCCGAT
stdout: -0.0137

stdin: I'd like to know its PBM binding z-score. The sequence in question is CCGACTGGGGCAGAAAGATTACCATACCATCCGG
stdout: -0.59

stdin: I'd like to know its PBM binding z-score. The sequence in question is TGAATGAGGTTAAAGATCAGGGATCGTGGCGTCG
stdout: 0.927

stdin: I'd like to know its PBM binding z-score. The sequence in question is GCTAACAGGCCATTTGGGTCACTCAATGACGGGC
stdout: -0.246

stdin: I'd like to know its PBM binding z-score. The sequence in question is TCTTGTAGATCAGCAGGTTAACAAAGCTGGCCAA
stdout: -0.763

stdin: I'd like to know its PBM binding z-score. The sequence in question is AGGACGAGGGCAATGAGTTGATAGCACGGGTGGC
stdout: 0.439

Values were extracted from the supplement of paper PMC6555819.
